Can you tell me Cell protein (% decrease) 10 μM Mean for the items I'm about to list?
tested on: H4βAPP695 wt cells; assay: Cytotoxicity by total cell protein content (BCA) of H4βAPP695 wt cells; conditions: 10 μM; cytotoxicity
Numbers only, in %.

Molecule	Cell protein (% decrease) 10 μM Mean, %
O=C(NCCSCc1ccccc1)c1ccccc1 [Compound 64, N-(2-Benzylsulfanyl-ethyl)-benzamide]	0.7

List reported Cell protein (% decrease) 10 μM Mean for each of these molecules:
1. O=C(NCCSCc1ccccc1Cl)c1c(Cl)cccc1Cl
2. COc1cc(Cl)cc(CSCCNC(=O)c2c(Cl)cccc2Cl)c1
3. COc1cccc(CS(=O)(=O)CCNC(=O)c2c(Cl)cccc2Cl)c1
4. Cc1cccc(CSCCNC(=O)c2c(Cl)cccc2Cl)c1
5. Clc1cccc(CSCCNCc2c(Cl)cccc2Cl)c1
6. O=Cc1cccc(CSCCNC(=O)c2c(Cl)cccc2Cl)c1
7. O=C(NCCSCc1cccc(O)c1O)c1c(Cl)cccc1Cl

["−0.5", 0.9, 1.2, 11.7, "−3.6", 1.5, "−4.8"]

* * *

system: H4βAPP695 wt cells; experiment: Cytotoxicity by total cell protein content (BCA) of H4βAPP695 wt cells; details: 10 μM; cytotoxicity
Observed property: Cell protein (% decrease) 10 μM Mean (%)
Numbers only, in %.

Some entries whose results are on file:
Sample smiles	Tested target	Cell protein (% decrease) 10 μM Mean / %
O=C(NCCSCc1cccc(I)c1)c1c(Cl)cccc1Cl	H4βAPP695 wt cells	9.2
O=C(NCCSCc1cccc(Cl)c1)c1c(F)cccc1F	H4βAPP695 wt cells	5.1

Now look at this entry.
Indicate the recorded Cell protein (% decrease) 10 μM Mean value for this compound: NC(=O)c1c(Cl)cccc1CSCC(=O)c1c(Cl)cccc1Cl
2.5

* * *

test system: H4βAPP695 wt cells; test: Cytotoxicity by total cell protein content (BCA) of H4βAPP695 wt cells; settings: 30 μM; cytotoxicity
I'd appreciate it if you could supply Cell protein (% decrease) 30 μM Mean values for the items below.
One number for each entry, in %.

A selection of reference data follows.
Compound	Unit annotation	Cell protein (% decrease) 30 μM Mean
O=C(NCCSCc1ccccc1Cl)c1c(Cl)cccc1Cl [Compound 76]	%	−11
O=C(NCCSCc1cccc(OCCOCCO)c1)c1c(Cl)cccc1Cl [Compound 70]	%	6.1
Clc1cccc(CSCCNCc2c(Cl)cccc2Cl)c1 [Compound 57]	%	6.6

Now turn to the next compound.
Enter recorded Cell protein (% decrease) 30 μM Mean with H4βAPP695 wt cells for O=C(NCCSCc1cccc(Cl)c1)c1c(F)cccc1F [Compound 67] here.
8.1

* * *

system: H4βAPP695 wt cells; experiment: Cytotoxicity by total cell protein content (BCA) of H4βAPP695 wt cells; details: 10 μM; cytotoxicity
So I've got a bunch of compounds here, and I need their Cell protein (% decrease) 10 μM Mean values.
Numbers only, in %.

Some solved cases for reference:
Sample smiles	Cell protein (% decrease) 10 μM Mean / %
COc1cccc(CSCCNC(=O)c2c(Cl)cccc2Cl)c1OC	−0.1
COc1cccc(CSCCNC(=O)c2c(Cl)cccc2OC)c1	1.9
N#Cc1cccc(CSCCNC(=O)c2c(Cl)cccc2Cl)c1	−4.8
O=C(O)c1cccc(CSCCNC(=O)c2c(Cl)cccc2Cl)c1	7.1
N=C(NO)c1cccc(CSCCNC(=O)c2c(Cl)cccc2Cl)c1	9.2
O=C(NCCSCc1cccc(OCCOCCO)c1)c1c(Cl)cccc1Cl	−7.3

Quick batch: Cell protein (% decrease) 10 μM Mean for everything below.
1. O=C(NCCS(=O)(=O)Cc1cccc(O)c1)c1c(Cl)cccc1Cl
2. O=C(NCCSCc1cccc(C(F)(F)F)c1)c1c(Cl)cccc1Cl

[7.7, 19]
